Biological target: T1, mouse recombinant TGF-β2 (mouse, UniProt P27090 303-414)
T1 construct: mature; also called mTGF-b2; Mouse TGF-β2
T1 sequence (looked up): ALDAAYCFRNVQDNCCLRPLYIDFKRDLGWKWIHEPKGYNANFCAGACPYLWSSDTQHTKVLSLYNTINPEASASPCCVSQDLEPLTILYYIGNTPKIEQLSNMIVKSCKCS
Test: BiaCORE (surface plasmon resonance)
assay-metric: Kd (pM)
Value expressed in pM; do not type the unit.

Look up Kd for this binder: MOR14797 (antibody, human IgG1, kappa, V domains shown, (no LALA)) VH: QVTLRESGPALVKPTQTLTLTCTFSGFSLSTSGMGVGWIRQPPGKALEWLAHIYWNDDKSYSTSLKTRLTISKDTSKNQVVLTMTNMDPVDTATYYCARDFYYSGYFDSWGQGTLVTVSS VL: DIQMTQSPSSLSASVGDRVTITCRASQDISNYLNWYQQKPGKAPKLLIFGASSLQSGVPSRFSGSGSGTDFTLTISSLQPEDFATYYCQQTNTMNTFGQGTKVEIKR 0.633
